Tested On: Recombinant human BRD2(1-473) (Homo sapiens (Human), UniProt P25440)
Sequence (P25440 1-473): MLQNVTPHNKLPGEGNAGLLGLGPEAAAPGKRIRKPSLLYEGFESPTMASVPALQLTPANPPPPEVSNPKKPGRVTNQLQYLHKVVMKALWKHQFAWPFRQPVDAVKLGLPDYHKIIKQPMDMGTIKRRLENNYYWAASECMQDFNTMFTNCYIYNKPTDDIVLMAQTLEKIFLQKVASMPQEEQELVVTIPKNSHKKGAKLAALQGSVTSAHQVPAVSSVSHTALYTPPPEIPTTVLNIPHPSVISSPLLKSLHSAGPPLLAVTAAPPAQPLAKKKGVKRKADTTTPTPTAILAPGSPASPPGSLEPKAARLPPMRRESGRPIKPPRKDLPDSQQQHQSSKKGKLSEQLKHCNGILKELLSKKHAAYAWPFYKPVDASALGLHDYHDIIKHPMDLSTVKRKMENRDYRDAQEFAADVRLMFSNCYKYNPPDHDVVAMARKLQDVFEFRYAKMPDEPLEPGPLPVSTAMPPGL
Protocol Notes: BRD2 TR-FRET biochemical IC50 assay
Format: binding
Quantity Kind: IC50 (nM)
The reply should contain only the number, in nM.

Please list IC50 recorded for the compound Cc1noc(C)c1-c1ccc2c(c1)C(O)(c1ccsc1)C(=O)N2 (single isomer, unassigned)
18

----------
Tested On: Recombinant human BRD4(1-477) (Homo sapiens (Human))
Protocol Notes: BRD4 TR-FRET biochemical IC50 assay
Format: binding
Measurement Context: TR-FRET, tetra-acetylated histone peptide; read-out: BRD4 IC50
Answer each item with its documented IC50.

Look up and report measured IC50 (Recombinant human BRD4(1-477) (Homo sapiens (Human))) for the following compound: Cc1noc(C)c1-c1ccc2c(c1)C(c1ccccc1)(N1CCC[C@H]1CO)C(=O)N2 (stereo partly shown)
90 nM

Look up and report measured IC50 (Recombinant human BRD4(1-477) (Homo sapiens (Human))) for the following compound: Cc1ccsc1C1(O)C(=O)Nc2ccc(-c3c(C)noc3C)cc21 (stereo not shown)
560 nM

Look up and report measured IC50 (Recombinant human BRD4(1-477) (Homo sapiens (Human))) for the following compound: Cc1noc(C)c1-c1ccc2c(c1)C(c1ccccc1)(N1CCC[C@H](NC(=O)OC(C)(C)C)C1)C(=O)N2 (stereo partly shown)
1100 nM

Look up and report measured IC50 (Recombinant human BRD4(1-477) (Homo sapiens (Human))) for the following compound: Cc1noc(C)c1-c1ccc2c(c1)C(NC[C@H](C)O)(c1ccccc1)C(=O)N2 (single isomer, unassigned) [Compound 2.14a]
78 nM

----------
Answer each item with its documented IC50.
Tested On: Recombinant human BRD4(1-477) (Homo sapiens (Human), UniProt O60885)
Protocol Notes: BRD4 TR-FRET biochemical IC50 assay
Type: binding
Measurement Context: TR-FRET, tetra-acetylated histone peptide; read-out: BRD4 IC50
Numeric answer plus unit only.

Please list IC50 recorded for the compound Cc1noc(C)c1-c1ccc2c(c1)C(c1ccccc1)(N1CCC[C@@H](NC(=O)OC(C)(C)C)C1)C(=O)N2 (stereo partly shown)
510 nM

Please list IC50 recorded for the compound Cc1noc(C)c1-c1ccc2c(c1)C(N)(c1ccc(F)cc1)C(=O)N2 (stereo not shown)
97 nM

Please list IC50 recorded for the compound COc1cc(-c2c(C)noc2C)cc2c1NC(=O)C2(O)c1ccccc1 (stereo not shown)
450 nM

Please list IC50 recorded for the compound Cc1noc(C)c1-c1ccc2c(c1)C(NCCN(C)C)(C1CCCCC1)C(=O)N2 (stereo not shown)
140 nM

----------
Tested On: Recombinant human BRDT(1-397) (Homo sapiens (Human))
Protocol Notes: BRDT TR-FRET biochemical IC50 assay
Format: binding
Measurement Context: TR-FRET, tetra-acetylated histone peptide; read-out: BRDT IC50
Could you please mark Satisfied for values of IC50 below 0.04 µM and Not satisfied for values at or above it?

For this molecule, is IC50 lower than 0.04 µM? Cc1noc(C)c1-c1ccc2c(c1)C(NCC(C)O)(C1CCCCC1)C(=O)N2 (stereo in doubt)
Not satisfied

For this molecule, is IC50 lower than 0.04 µM? Cc1noc(C)c1-c1ccc2c(c1)C(c1ccccc1)(N1CCC[C@H](N)C1)C(=O)N2 (stereo partly drawn)
Satisfied

For this molecule, is IC50 lower than 0.04 µM? Cc1noc(C)c1-c1ccc2c(c1)C(O)(C1CCCCC1=O)C(=O)N2 (single isomer, unassigned) [Compound 1.30a]
Not satisfied

For this molecule, is IC50 lower than 0.04 µM? Cc1noc(C)c1-c1ccc2c(c1)C(O)(C1CCOCC1)C(=O)N2 (stereo not drawn)
Not satisfied

For this molecule, is IC50 lower than 0.04 µM? Cc1noc(C)c1-c1ccc2c(c1)C(N[C@H](C)CO)(c1ccccc1)C(=O)N2 (single isomer, unassigned) [Compound 2.10a]
Not satisfied

For this molecule, is IC50 lower than 0.04 µM? Cc1noc(C)c1-c1ccc2c(c1)C(c1ccccc1)(N1CCC[C@H](O)C1)C(=O)N2 (stereo partly drawn)
Satisfied

----------
Answer each item with its documented IC50.
Tested On: Recombinant human BRD4(1-477) (Homo sapiens (Human))
Protocol Notes: BRD4 TR-FRET biochemical IC50 assay
Format: binding
Measurement Context: TR-FRET, tetra-acetylated histone peptide; read-out: BRD4 IC50
The reply should contain only the number, in nM.

Please list IC50 recorded for the molecule Cc1noc(C)c1-c1ccc2c(c1)C(O)(C1CCOCC1)C(=O)N2 (stereo not shown) [Compound 1.16]
630

Please list IC50 recorded for the molecule COC(=O)[C@@H](Cc1cnc[nH]1)NC1(c2ccccc2)C(=O)Nc2ccc(-c3c(C)noc3C)cc21 (stereo partly shown) [Compound 2.56]
260

Please list IC50 recorded for the molecule Cc1noc(C)c1-c1ccc2c(c1)C(c1ccsc1)(N1CCC[C@H](N)C1)C(=O)N2 (single isomer, unassigned) [Compound 4.7b]
8

Please list IC50 recorded for the molecule Cc1noc(C)c1-c1ccc2c(c1)C(N[C@H](CO)C(C)C)(c1ccccc1)C(=O)N2 (single isomer, unassigned) [Compound 2.12a]
89

Please list IC50 recorded for the molecule Cc1noc(C)c1-c1ccc2c(c1)C(c1ccsc1)(N1CCC[C@@H](N)C1)C(=O)N2 (single isomer, unassigned) [Compound 4.6b]
24

Please list IC50 recorded for the molecule CCOC(=O)CC1(c2ccccc2)C(=O)Nc2ccc(-c3c(C)noc3C)cc21 (stereo not shown) [Compound 3.3]
440

Please list IC50 recorded for the molecule Cc1noc(C)c1-c1ccc2c(c1)C(O)(C1CCCCC1)C(=O)N2 (stereo not shown) [Compound 1.15]
77

----------
Tested On: Recombinant human BRD3(1-435) (Homo sapiens (Human))
Sequence (Q15059 1-435): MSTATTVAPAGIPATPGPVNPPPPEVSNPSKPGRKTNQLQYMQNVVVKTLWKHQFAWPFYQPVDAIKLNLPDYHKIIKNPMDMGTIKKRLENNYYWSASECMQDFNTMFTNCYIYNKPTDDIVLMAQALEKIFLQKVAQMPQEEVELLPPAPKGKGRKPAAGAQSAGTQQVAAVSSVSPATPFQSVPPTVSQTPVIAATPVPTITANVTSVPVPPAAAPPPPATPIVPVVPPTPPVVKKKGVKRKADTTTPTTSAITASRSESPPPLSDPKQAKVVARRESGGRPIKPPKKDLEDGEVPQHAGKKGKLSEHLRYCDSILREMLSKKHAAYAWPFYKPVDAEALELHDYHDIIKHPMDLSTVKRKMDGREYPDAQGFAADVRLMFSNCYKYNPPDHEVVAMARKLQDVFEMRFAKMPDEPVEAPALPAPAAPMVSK
Protocol Notes: BRD3 TR-FRET biochemical IC50 assay
Format: binding
Quantity Kind: pIC50
FYI, pIC50 means -log10 of a concentration in mol per litre.

Look up and report measured pIC50 (Recombinant human BRD3(1-435) (Homo sapiens (Human))) for the following compound: Cc1noc(C)c1-c1ccc2c(c1)C(O)(c1ccsc1)C(=O)N2 (single isomer, unassigned) [Compound 4.1b]
7.85

----------
Answer each item with its documented log10(IC50).
Tested On: Recombinant human BRD4(1-477) (Homo sapiens (Human), UniProt O60885)
Protocol Notes: BRD4 TR-FRET biochemical IC50 assay
Type: binding
Measurement Context: TR-FRET, tetra-acetylated histone peptide; read-out: BRD4 IC50
The common logarithm of IC50 in nM is what is listed.

Please list log10(IC50) recorded for the compound Cc1noc(C)c1-c1ccc2c(c1)C(C1CCCC1)(N1CCNCC1)C(=O)N2 (centres unmarked)
2.18

Please list log10(IC50) recorded for the compound Cc1noc(C)c1-c1ccc2c(c1)C(O)(C1CCCC1)C(=O)N2 (centres unmarked)
2.43

Please list log10(IC50) recorded for the compound Cc1noc(C)c1-c1ccc2c(c1)C(NC[C@H](C)O)(C1CCCCC1)C(=O)N2 (some centres unmarked)
1.94

Please list log10(IC50) recorded for the compound Cc1noc(C)c1-c1ccc2c(c1)C(O)(C1CC1)C(=O)N2 (centres unmarked)
2.93

Please list log10(IC50) recorded for the compound Cc1noc(C)c1-c1ccc2c(c1)C(N)(c1ccsc1)C(=O)N2 (centres unmarked)
2.60

Please list log10(IC50) recorded for the compound Cc1noc(C)c1-c1ccc2c(c1)C(NCCO)(C1CCCC1)C(=O)N2 (centres unmarked)
2.11

Please list log10(IC50) recorded for the compound Cc1noc(C)c1-c1ccc2c(c1)C(O)(c1ccc(F)cc1)C(=O)N2 (centres unmarked)
2.00

Please list log10(IC50) recorded for the compound COc1ccc(C2(O)C(=O)Nc3ccc(-c4c(C)noc4C)cc32)cc1 (centres unmarked)
2.61

Please list log10(IC50) recorded for the compound Cc1noc(C)c1-c1ccc2c(c1)C(CCCO)(c1ccccc1)C(=O)N2 (centres unmarked)
1.72

Please list log10(IC50) recorded for the compound Cc1noc(C)c1-c1ccc2c(c1)C(c1ccccc1)(N1CCN(C)CC1)C(=O)N2 (centres unmarked)
2.04

Please list log10(IC50) recorded for the compound Cc1noc(C)c1-c1ccc2c(c1)C(c1ccccc1)(N1CCC[C@@H](N)C1)C(=O)N2 (some centres unmarked)
1.41

Please list log10(IC50) recorded for the compound Cc1noc(C)c1-c1ccc2c(c1)C(Cl)(c1ccccc1)C(=O)N2 (centres unmarked)
1.76

Please list log10(IC50) recorded for the compound Cc1noc(C)c1-c1ccc2c(c1)C(O)(c1ccc(F)c(F)c1)C(=O)N2 (centres unmarked)
2.30

Please list log10(IC50) recorded for the compound Cc1noc(C)c1-c1ccc2c(c1)C(C1CCCCC1)(N1CCNCC1)C(=O)N2 (centres unmarked)
1.88

Please list log10(IC50) recorded for the compound Cc1noc(C)c1-c1ccc2c(c1)C(N[C@@H](CO)C(C)C)(C1CCCCC1)C(=O)N2 (single isomer, unassigned) [Compound 2.20b]
2.54

Please list log10(IC50) recorded for the compound Cc1ccc(C2(O)C(=O)Nc3ccc(-c4c(C)noc4C)cc32)cc1 (centres unmarked)
2.26

Please list log10(IC50) recorded for the compound CCOC(=O)CN1CCN(C2(c3ccccc3)C(=O)Nc3ccc(-c4c(C)noc4C)cc32)CC1 (centres unmarked)
1.73
